- testedTarget: T1, biotinylated GITR (human, UniProt Q9Y5U5 26-161, limits assumed, biotinylated (sites not given))
- T1 construct: also called GITR-bio; Biotin-GITR
- T1 sequence: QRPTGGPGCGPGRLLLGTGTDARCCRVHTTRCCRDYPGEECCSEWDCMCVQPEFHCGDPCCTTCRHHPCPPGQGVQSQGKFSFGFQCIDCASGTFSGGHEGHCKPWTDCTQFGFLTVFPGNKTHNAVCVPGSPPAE
- assayComment: BLI (Octet), biotin-GITR on streptavidin tips, antibody supernatant
Output label 1 for records whose kon is lower than 600000 M⁻¹ s⁻¹, label 0 for records at or above 600000 M⁻¹ s⁻¹.

Determine whether this binder shows kon lower than 600000 M⁻¹ s⁻¹ (ties excluded): germline variant antibody 49 (H1916E11 / K1916E11) (antibody, V domains shown, IGHG1/IGKC expression vectors; measured from CHO culture supernatant; also called Antibody ID 49) VH: QVQLVQSGTEVKKPGASVKVSCKGSGYTFTGYAMYWVRQAPGQGLEWMGVIRTYSGDVTYNQKFRERATMTVDTSISTAYMELSRLRSDDTAVYYCAKSGTVRGFAYWGQGTLVTVSS VL: DIVMTQSPDSLAVSLGERATINCKSSQSLLNSGNQKNYLTWYHQKPGQPPKLLIYWASTRESGVPDRFSGSGSGTDFTLTISSVQAEDVAVYHCQNDYSFPYTFGQGTKLEIK
label 1

Determine whether this binder shows kon lower than 600000 M⁻¹ s⁻¹ (ties excluded): germline variant antibody 20 (H1916B12 / K1916B12) (antibody, V domains shown, IGHG1/IGKC expression vectors; measured from CHO culture supernatant; also called Antibody ID 20) VH: QVQLVQSGTEVKKPGASVKVSCKASGYTFTDYAMYWVRQAPGQGLEWIGVIRTFSGDLSYNQKFRGRVTMTVDTSISTAYMELSRLRSDDTAVYYCAKSGTVRGFAYWGQGTLVTVSS VL: DIVMTQSPDSLAVSLGERATINCKSSQSLLNSGNQKNYLTWYQQKPGQPPKMLLYWASTRESGVPDRFTGSGSGTDFTLTISSVQAEDVAVYHCQNDYSYPYTFGQGTKLEIK
label 1

Determine whether this binder shows kon lower than 600000 M⁻¹ s⁻¹ (ties excluded): germline variant antibody 107 (H1917H09 / K1917H09) (antibody, V domains shown, IGHG1/IGKC expression vectors; measured from CHO culture supernatant) VH: QVQLVQSGAEVKKPGASVKVSCKGSGYTFTGYAMYWVRQAPGQGLEWMGVIRTYSGDVSYNQKFRDRVTMTVDTSISTAYMELSRLRSDDTAVYYCAKSGTVRGFAYWGQGTLVTVSS VL: DIVMTQSPDSLAVSLGERATINCKSSQSLLNSGNQKNYLSWYHQKPGQPPKLLIYWASTRESGVPDRFTGSGSGTDFTLTISSVQAEDVAVYYCQNDYSYPYTFGQGTKLEIK
label 1

Determine whether this binder shows kon lower than 600000 M⁻¹ s⁻¹ (ties excluded): germline variant antibody 35 (H1916D05 / K1916D05) (antibody, V domains shown, IGHG1/IGKC expression vectors; measured from CHO culture supernatant; also called Antibody ID 35) VH: QVQLVQSGAEAKKPGASVKVSCKGSGYTFTGYAMYWVRQAPGQGMEWIGVIRTFSGDVTYNQKFRGRVTMTVDTSISTAYMELSRLRSDDTAVYYCAKSGTVRGFAYWGQGTLVTVSS VL: DIVMTQSPDSLAVSLGERATINCKSSQSLLNSGNQKNYLTWYHQKPGQPPKLLIYWASTRESGVPDRFTGSGSGTDFTLTISSVQAEDVAVYYCQNDYSYPYTFGQGTKLEIK
label 0
